What follows is literature data on IC50 for Mast/stem cell growth factor receptor Kit (Homo sapiens).

INPUT: Report IC50 for O=C(c1c(F)ccc(NS(=O)(=O)c2ccc(-n3cccn3)cc2)c1F)c1c[nH]c2ncc(Cl)cc12 tested on Mast/stem cell growth factor receptor Kit (Homo sapiens).
OUTPUT: ≤ 10 µM

INPUT: Report IC50 for CCN1CCC(Nc2ccc3c(c2)/C(=C(\c2ccc(F)c(F)c2)c2nc(C)c[nH]2)C(=O)N3)CC1 tested on Mast/stem cell growth factor receptor Kit (Homo sapiens).
OUTPUT: 0.05 to 0.5 µM

INPUT: Report IC50 for COc1cnc2[nH]cc(C(=O)c3c(F)ccc(NS(=O)(=O)CC(C)C)c3F)c2c1 tested on Mast/stem cell growth factor receptor Kit (Homo sapiens).
OUTPUT: ≤ 10 µM

INPUT: Report IC50 for c1ccc(COc2cnc3[nH]ccc3c2)cc1 tested on Mast/stem cell growth factor receptor Kit (Homo sapiens).
OUTPUT: ≤ 10 µM
